B1: CD2-associated protein, residues 271 to 331; numbered along this chain, Q9Y5K6 (parent)
chain: KEYCRTLFAYEGTNEDELTFKEGEIIHLISKETGEAGWWRGELNGKEGVFPDNFAVQINEL

Variants of: B1
Assay: abundance fitness (aPCA) (normalised: wild type 0, dead -1); higher = more abundant; growth selection in yeast, the domain comes from the species named
Stated conditions: Homo sapiens
Test readout: abundance fitness

E17Y    -0.463
Q57K    -0.188
P51R    -0.032
F50P    -0.973
F20I    -0.492
F54H    -0.018
K21M    -0.202
K46T    -0.273
F54C    0.084
Q57N    -0.077
G34P    -0.181
Q57H    -0.051
E15C    -0.123
L43E    -0.703
K46P    -1.05
N53H    -0.032
E32N    0.085
G23K    -0.646
E2N    0.002
L61Y    0.064
L7R    -0.276
R5K    0.182
T19D    -0.499
E32Q    -0.139
L28P    -0.614
A36R    -0.054
E15G    -0.107
E47G    -0.479
G34K    0.048
G48T    -1.07
K21Q    -0.139
E32P    -0.553
G37Y    -0.898
E24S    -0.461
L18Q    -0.831
G34W    -0.712
E35C    -0.027
R40A    -0.426
W39E    -0.663
G45L    -0.858
K21T    -0.076
L28I    -0.068
K1R    -0.277
S30F    -0.967
Y10I    -0.846
I29Y    -0.755

These measurements were taken from the Human Domainome abundance scans (Beltran et al. 2025).
